experimental.details: chemical genetic growth profiling, strain panel (AID 1159580);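 note: tested at 20 µM; growth read once vehicle control cultures reached saturation at 30 °C; 1 = growth at the plate median or of vehicle wells; lower values mean less growth of the strain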
condition.label: S. cerevisiae deletion strains, growth OD, locus YLR342W, strain FKS1, active compounds read low
In all, about 5,500 compounds went through this assay and about 2,000 (36%) were called active. About 18% were inconclusive and are not listed. This is one part of the list.
readout: normalized growth
Could you respond with only the numeric value?

Take a look at these entries with their results.
compound	normalized growth
Cc1cccc(Nc2cc(Cl)nc(SCC(=O)O)n2)c1C	1
CCC(C(=O)O)c1ccccc1 (configuration not stated)	0.998
CC1(C)C2CC[C@]3(C)C(C(=O)C=C4[C@@H]5C[C@@](C)(C(=O)O)CC[C@]5(C)CC[C@]43C)[C@@]2(C)CC[C@@H]1OC(=O)CCC(=O)O (some centres not stated)	0.985
CC[C@H]1OC(=O)C[C@@H](O)[C@H](C)[C@@H](O[C@@H]2O[C@H](C)[C@@H](O[C@H]3C[C@@](C)(O)[C@@H](O)[C@H](C)O3)[C@H](N(C)C)[C@H]2O)[C@@H](CC=O)C[C@@H](C)C(=O)/C=C/C(C)=C/[C@@H]1CO[C@@H]1O[C@H](C)[C@@H](O)[C@@H](OC)[C@H]1OC	0.984
NC[C@@H]1O[C@H](O[C@@H]2[C@@H](CO)OC(O[C@@H]3[C@@H](O)[C@H](N)C[C@H](N)[C@H]3OC3O[C@H](CN)[C@@H](O)[C@H](O)[C@H]3N)[C@@H]2O)[C@H](N)[C@@H](O)[C@@H]1O (some centres not stated)	1.03

Record CN1CCc2cc3c(cc2C1O)OCO3 (configuration not stated) , field normalized growth: 0.999

According to the records, this compound `NC(=O)N1c2ccccc2CC(=O)c2ccccc21` displays normalized growth of 0.998

###

experimental.details: chemical genetic growth profiling, strain panel (AID 1159580);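 note: tested at 20 µM; growth read once vehicle control cultures reached saturation at 30 °C; 1 = growth at the plate median or of vehicle wells; lower values mean less growth of the strain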
condition.label: S. cerevisiae deletion strains, growth OD, locus YHR200W, strain rpn10
In all, about 5,500 compounds went through this assay and about 2,000 (36%) were called active. Inconclusive results (about 18%) are left out. No stated cut-off is given here; in the data, active means normalized growth mostly below about 0.91 (no sharp cut-off); inconclusive means no clear call, values can overlap the other calls; inactive means mostly above about 0.92. This is one part of the list.
Select the correct class. Options are active, inactive and nothing else.

Worked cases, answers included:
compound	class
Oc1ccc(O)cc1	inactive
COc1c(CC=C(C)C)c2c(c3oc(=O)c(-c4ccc(O)cc4)c(O)c13)C=CC(C)(C)O2	active
NC/C=C/C(=O)O	inactive
OCC(O)Cc1ccc2c(c1)OCO2 (stereo not drawn)	inactive

For `Nc1nc2[nH]c(=O)c(=O)[nH]c2c(=O)[nH]1` , what call appears in the results of this test?
inactive

Per the records of this test, what outcome belongs to `COc1ccc2cc1Oc1ccc(cc1)C[C@H]1c3cc(c(OC)cc3CCN1C)Oc1c(OC)c(OC)cc3c1[C@H](C2)N(C)CC3` ?
inactive

How did this test come out for `COc1ccc(-c2c(O)c3cc4c(c(CC=C(C)C)c3oc2=O)OC(C)(C)CC4)cc1` ?
inactive

State the result this test recorded for `C1CCc2nnnn2CC1` .
inactive

###

experimental.details: chemical genetic growth profiling, strain panel (AID 1159580);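 note: tested at 20 µM; growth read once vehicle control cultures reached saturation at 30 °C; 1 = growth at the plate median or of vehicle wells; lower values mean less growth of the strain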
condition.label: S. cerevisiae deletion strains, growth OD, locus YPL241C, strain CIN2, active compounds read low
About 2,000 (36%) of roughly 5,500 compounds were called active. Another 18% or so got no clear call; they are omitted. The list shows a part of the results.
Here the recorded normalized growth is given for each entry.
Could you keep your reply to the number by itself?

Example entries begin here.
molecule	measured.result
COc1ccc(C2CC(=O)c3ccc(OC)cc3O2)cc1 (stereo unspecified)	0.985
O=C1C[C@@H](c2ccccc2)Oc2cc(O)cc(O)c21	0.955

Sure, the documented normalized growth for O=C1CC(c2ccc(O)cc2)Oc2ccccc21 (stereo unspecified) is 0.935

Summary for this molecule, `Oc1c(Cl)c(Cl)c(Cl)c(Cl)c1Cl` : normalized growth is 0.819

normalized growth recorded for this molecule, COc1cc(OC)c2c(c1)OC(c1ccccc1)CC2=O (stereo unspecified) , is 0.978

Notebook: `O=C1C[C@@H](c2ccc(O)cc2)Oc2cc(O)cc(O)c21` , normalized growth read as 1
